# Antithrombotic Effect: Thrombus weight ±S.E. per record follows
System: male SD rats
Assay: Thrombus formation in abdominal vena cava
Type: in vivo
Settings: 30 mg/kg, p.o.; dry weight of thrombus
Quick note: give the figure in mg, leave out the unit.

The examples below pair each entry with its known result.
| Compound | Subject of test | Measure unit | Meas value |
| --- | --- | --- | --- |
| C[C@H](CCCO)[C@H]1CC[C@H]2[C@@H]3[C@H](O)C[C@@H]4C[C@H](O)CC[C@]4(C)[C@H]3C[C@H](O)[C@]12C [Illustrative Example 6, 3α,7α,12α,24-tetrahydroxy-5β-cholan] | male SD rats | mg | 12.4 |
| CC(C)C(O)CC[C@@H](C)[C@H]1CC[C@H]2[C@@H]3[C@H](O)C[C@@H]4C[C@H](O)CC[C@]4(C)[C@H]3C[C@H](O)[C@]12C (stereo partly drawn) [Illustrative Example 5, 3α,7α,12α,24-tetrahydroxy-5β-cholestane] | male SD rats | mg | 13.8 |
| C[C@H](CCCC(C)(O)CO)[C@H]1CC[C@H]2[C@@H]3[C@H](O)C[C@@H]4C[C@H](O)CC[C@]4(C)[C@H]3C[C@H](O)[C@]12C (stereo partly shown) | male SD rats | mg | 14.1 |

# context switch: different compound, same Antithrombotic Effect: Thrombus weight ±S.E.
Fill in Antithrombotic Effect: Thrombus weight ±S.E. for record C[C@H](CC[C@@H](O)C(CO)CO)[C@H]1CC[C@H]2[C@@H]3[C@H](O)C[C@@H]4C[C@H](O)CC[C@]4(C)[C@H]3C[C@H](O)[C@]12C 15.1
